Experimental setup: in formic acid, 293.1 K
Measured property: solubility (mole fraction)

INSERT INTO assay_data (cpd_smiles, measured_property, result) VALUES
  ('O=S(=O)([O-])NC1CCCCC1.[Na+]', 'solubility (mole fraction)', 0.0209);

====

Experimental setup: in acetic acid, 303.15 K
Measured property: solubility (mole fraction)

INSERT INTO results (cpd_smiles, measured_number) VALUES
  ('O=S(=O)([O-])NC1CCCCC1.[Na+]', 0.00649);

====

Experimental setup: in methanol, 293.24 K
Measured property: solubility (mole fraction)

INSERT INTO results (cpd_smiles, measured_number) VALUES
  ('O=S(=O)([O-])NC1CCCCC1.[Na+]', 0.00314);
